species on record: Homo sapiens; test: Inhibition of human recombinant PDE4A1A using FAM-cAMP as substrate measured after 1 hr by IMAP TR-FRET assay relative to control

Compound | Emax [%]
COc1ccc(CCN(C)S(=O)(=O)c2ccc(-c3ccccc3)cc2)cc1OC | 65
COc1ccc(CCN(C)S(=O)(=O)c2ccc3ccccc3c2)cc1OC | 97
COc1ccc(/C=N/N(C)S(=O)(=O)c2cc3c(cc2C)OCO3)cc1OC | 100
COc1ccc([C@]2(C#N)CC[C@@H](C(=O)O)CC2)cc1OC1CCCC1 [CILOMILAST] | 99

----------
molecular target: 3',5'-cyclic-AMP phosphodiesterase 4B (Homo sapiens); test: Inhibition of human recombinant PDE4B1 using FAM-cAMP as substrate at 10 uM measured after 1 hr by IMAP TR-FRET assay
Sequence (Q07343 whole entry): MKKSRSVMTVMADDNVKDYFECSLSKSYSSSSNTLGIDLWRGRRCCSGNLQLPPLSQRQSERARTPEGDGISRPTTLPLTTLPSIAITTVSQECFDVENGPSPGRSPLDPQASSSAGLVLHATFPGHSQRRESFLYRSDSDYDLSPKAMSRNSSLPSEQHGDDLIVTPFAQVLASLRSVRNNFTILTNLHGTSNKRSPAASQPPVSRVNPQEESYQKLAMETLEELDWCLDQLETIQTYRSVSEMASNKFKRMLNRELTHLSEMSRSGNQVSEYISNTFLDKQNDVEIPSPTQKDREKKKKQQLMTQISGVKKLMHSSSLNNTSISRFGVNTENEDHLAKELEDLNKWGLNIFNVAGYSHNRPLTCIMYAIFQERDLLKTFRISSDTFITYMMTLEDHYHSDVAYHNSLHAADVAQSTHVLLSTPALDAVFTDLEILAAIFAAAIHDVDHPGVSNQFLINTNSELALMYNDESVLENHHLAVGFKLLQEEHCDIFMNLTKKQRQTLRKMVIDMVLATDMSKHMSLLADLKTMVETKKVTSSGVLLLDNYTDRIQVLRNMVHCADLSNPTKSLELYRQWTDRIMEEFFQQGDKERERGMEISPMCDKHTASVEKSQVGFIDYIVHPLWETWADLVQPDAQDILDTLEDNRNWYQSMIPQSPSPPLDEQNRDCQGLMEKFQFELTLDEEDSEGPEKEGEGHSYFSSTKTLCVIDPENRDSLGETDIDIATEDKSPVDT
Measurement name: inhibition

Molecule smiles | Recorded value
COc1ccc(CCN(C)S(=O)(=O)c2ccc3ccccc3c2)cc1OC | 12.2%
COc1ccc(CCN(C)S(=O)(=O)c2ccc(OC)c(OC)c2)cc1OC | 12%
COc1ccc(/C=N/NS(=O)(=O)c2ccccc2C)cc1OC | < 5%
COc1ccc(CCNS(=O)(=O)c2ccc(OC)c(OC)c2)cc1OC | < 5%
COc1ccc(S(=O)(=O)N/N=C/c2ccc(OC)c(OC)c2)cc1 | < 5%
COc1ccc(S(=O)(=O)NCCc2ccc(OC)c(OC)c2)cc1 | < 5%
COc1ccc(/C=N/N(C)S(=O)(=O)c2cc3c(cc2C)OCO3)cc1OC | 22.7%
COc1ccc(CCNS(=O)(=O)c2ccccc2C)cc1OC | < 5%
COc1ccc(/C=N/NS(=O)(=O)c2ccccc2)cc1OC | < 5%
COc1ccc(CCNS(=O)(=O)c2ccc([N+](=O)[O-])cc2)cc1OC | 13.8%
COc1ccc([C@]2(C#N)CC[C@@H](C(=O)O)CC2)cc1OC1CCCC1 | 91.3%
COc1ccc(/C=N/N(C)S(=O)(=O)c2ccccc2C)cc1OC | < 5%
COc1ccc(CCNS(=O)(=O)c2ccc(-c3ccccc3)cc2)cc1OC | < 5%
COc1ccc(CCNS(=O)(=O)c2cc3c(cc2C)OCO3)cc1OC | < 5%
COc1ccc(CCN(C)S(=O)(=O)c2ccccc2C)cc1OC | 26.5%
COc1ccc(CCN(C)S(=O)(=O)c2ccc(-c3ccccc3)cc2)cc1OC | 7.1%
COc1ccc(CCNS(=O)(=O)c2ccc3ccccc3c2)cc1OC | < 5%
COc1ccc(S(=O)(=O)N(C)/N=C/c2ccc(OC)c(OC)c2)cc1 | < 5%
COc1ccc(/C=N/NS(=O)(=O)c2ccc(C(F)(F)F)cc2)cc1OC | < 5%
COc1ccc(CCN(C)S(=O)(=O)c2ccc([N+](=O)[O-])cc2)cc1OC | < 5%
COc1ccc(/C=N/NS(=O)(=O)c2cc3c(cc2C)OCO3)cc1OC | < 5%
COc1ccc(S(=O)(=O)N(C)CCc2ccc(OC)c(OC)c2)cc1 | 33%

----------
species: Homo sapiens; experiment: Inhibition of human recombinant PDE4A1A using FAM-cAMP as substrate at 10 uM measured after 1 hr by IMAP TR-FRET assay
Assign class 1 whenever inhibition does not fall below 30%; assign class 0 whenever it does.

Molecule smiles | Category
COc1ccc(/C=N/NS(=O)(=O)c2cc3c(cc2C)OCO3)cc1OC | class 0
COc1ccc(S(=O)(=O)N(C)CCc2ccc(OC)c(OC)c2)cc1 | class 1
COc1ccc(CCN(C)S(=O)(=O)c2ccc3ccccc3c2)cc1OC | class 1
COc1ccc(S(=O)(=O)N/N=C/c2ccc(OC)c(OC)c2)cc1 | class 1
COc1ccc(S(=O)(=O)N(C)/N=C/c2ccc(OC)c(OC)c2)cc1 | class 1
COc1ccc(/C=N/N(C)S(=O)(=O)c2cc3c(cc2C)OCO3)cc1OC | class 1
COc1ccc(/C=N/NS(=O)(=O)c2ccccc2C)cc1OC | class 0
COc1ccc(CCNS(=O)(=O)c2ccccc2C)cc1OC | class 0
COc1ccc(S(=O)(=O)NCCc2ccc(OC)c(OC)c2)cc1 | class 0
COc1ccc(/C=N/NS(=O)(=O)c2ccc(C(F)(F)F)cc2)cc1OC | class 0
COc1ccc(/C=N/N(C)S(=O)(=O)c2ccccc2C)cc1OC | class 0
COc1ccc(CCNS(=O)(=O)c2ccc(OC)c(OC)c2)cc1OC | class 0
COc1ccc(CCNS(=O)(=O)c2cc3c(cc2C)OCO3)cc1OC | class 0
COc1ccc([C@]2(C#N)CC[C@@H](C(=O)O)CC2)cc1OC1CCCC1 | class 1
COc1ccc(CCNS(=O)(=O)c2ccc([N+](=O)[O-])cc2)cc1OC | class 0
COc1ccc(CCN(C)S(=O)(=O)c2ccccc2C)cc1OC | class 0
